# Tested On: T1, EsCas13d, nuclease-dead (Eubacterium siraeum, UniProt B0MS50, R295A;H300A;R849A;H854A)
# T1 sequence: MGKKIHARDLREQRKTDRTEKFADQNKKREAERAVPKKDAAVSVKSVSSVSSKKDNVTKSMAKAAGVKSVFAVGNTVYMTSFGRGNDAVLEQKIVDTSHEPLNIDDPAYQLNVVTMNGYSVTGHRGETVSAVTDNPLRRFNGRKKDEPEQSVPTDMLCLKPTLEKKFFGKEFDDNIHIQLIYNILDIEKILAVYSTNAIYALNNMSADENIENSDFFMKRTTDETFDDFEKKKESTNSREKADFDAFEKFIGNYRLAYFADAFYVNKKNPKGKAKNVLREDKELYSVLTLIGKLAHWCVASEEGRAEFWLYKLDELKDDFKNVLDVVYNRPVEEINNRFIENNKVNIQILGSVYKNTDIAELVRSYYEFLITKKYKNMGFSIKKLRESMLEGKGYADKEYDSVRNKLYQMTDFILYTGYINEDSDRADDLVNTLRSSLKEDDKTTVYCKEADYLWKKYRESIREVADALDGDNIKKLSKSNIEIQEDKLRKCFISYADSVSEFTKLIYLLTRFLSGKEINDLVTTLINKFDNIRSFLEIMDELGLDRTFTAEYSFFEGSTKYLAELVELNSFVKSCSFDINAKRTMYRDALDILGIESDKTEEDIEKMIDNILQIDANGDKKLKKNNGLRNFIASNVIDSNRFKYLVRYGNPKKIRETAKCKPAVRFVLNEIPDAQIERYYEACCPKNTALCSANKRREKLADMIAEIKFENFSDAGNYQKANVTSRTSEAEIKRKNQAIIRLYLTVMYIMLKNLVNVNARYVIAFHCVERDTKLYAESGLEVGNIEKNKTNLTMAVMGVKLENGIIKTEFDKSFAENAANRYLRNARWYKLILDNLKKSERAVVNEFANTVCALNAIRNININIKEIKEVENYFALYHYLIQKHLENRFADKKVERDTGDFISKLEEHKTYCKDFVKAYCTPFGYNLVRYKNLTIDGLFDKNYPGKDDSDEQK
# Protocol Details: crRNA (strand 1, pre-loaded); Mg2+; 40 mM Tris-HCl pH 7.5, 150 mM NaCl, 6 mM MgCl2, 1 mM DTT, 0.1% Tween-20, 0.2 mg/ml BSA; 25 C; 10 min per concentration, then washed
# Conditions: tags: His6-TwinStrep-SUMO cleaved; N-terminal SNAP kept (SNAP-Surface 488); label: 3' end held by stalled T7 RNA polymerase

{"Binder": "target 2 MT 5'PFS UUG 3'PFS CCA (mixed) RNA 1: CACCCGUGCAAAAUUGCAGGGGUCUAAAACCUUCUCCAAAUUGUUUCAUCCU RNA 2: GGGAAUGGAUCCACAUCUACGAAUUCUUGAGGAUGAAACAAUUUGGAGAAGCCAAGAUCGGAAGAGCACACGU", "Kd / nM": 37}
{"Binder": "target 1 insG 3' of 22,insU 3' of 4 (mixed) RNA 1: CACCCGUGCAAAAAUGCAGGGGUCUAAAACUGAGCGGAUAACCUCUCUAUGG RNA 2: GGGAAUGGAUCCACAUCUACGAAUUCGUACGCAUAGAGAGGUUAUCCGCUUCACCGAGAUCGGAAGAGCACACGU", "Kd / nM": 32}
{"Binder": "target 2 MT 5'PFS AGC 3'PFS AUC (mixed) RNA 1: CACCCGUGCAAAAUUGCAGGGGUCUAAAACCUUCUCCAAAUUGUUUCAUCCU RNA 2: GGGAAUGGAUCCACAUCUACGAAUUCAGCAGGAUGAAACAAUUUGGAGAAGAUCAGAUCGGAAGAGCACACGU", "Kd / nM": 10.9}
{"Binder": "target 1 U11A (mixed) RNA 1: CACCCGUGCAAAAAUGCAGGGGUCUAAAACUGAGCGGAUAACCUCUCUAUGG RNA 2: GGGAAUGGAUCCACAUCUACGAAUUCGUACCAUAGAGAGGAUAUCCGCUCACCGAGAUCGGAAGAGCACACGU", "Kd / nM": 30.7}

Data origin, for the record: paper PMC10786891
